Target: apo-D-amino acid oxidase (Sus scrofa, UniProt P00371)
Construct: Apo-D-amino acid oxidase extracted and purified from the porcine kidneys is known and can be suitably used; purchased Calzyme Inc. 176A0025
Sequence (P00371 whole entry): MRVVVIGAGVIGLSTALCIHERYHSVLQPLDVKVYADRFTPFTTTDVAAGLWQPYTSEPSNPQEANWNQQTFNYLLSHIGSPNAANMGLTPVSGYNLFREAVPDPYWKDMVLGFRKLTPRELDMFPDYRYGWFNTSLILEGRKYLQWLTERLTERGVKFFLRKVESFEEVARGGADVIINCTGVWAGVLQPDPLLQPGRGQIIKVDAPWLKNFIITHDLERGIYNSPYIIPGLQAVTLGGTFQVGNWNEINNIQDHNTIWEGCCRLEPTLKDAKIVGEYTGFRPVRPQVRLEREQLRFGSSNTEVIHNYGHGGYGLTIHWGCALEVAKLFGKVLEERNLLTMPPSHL
Test: Comparison of reactivity between various D-amino acids as substrates of FAD-reactivated apo-D-amino acid oxidase (peroxidase/DA-64 colorimetric, Hitachi 7170)
Format: biochemical, porcine
Conditions: 5 mM D-amino acid in reagent 1, 50 mM Tris-HCl pH 8.3; 10 U/ml apo-D-amino acid oxidase, FAD sample; 700 nm; D-valine = 100
Reported percent reactivity of D-amino acid (relative to D-valine defined as 100) is given for each of the following compounds.
Mention the unit after the number when you answer.

>>> reported_value("N[C@H](CO)C(=O)O")
"117%"
>>> reported_value("N[C@H](Cc1ccc(O)cc1)C(=O)O")
"159%"
>>> reported_value("CC(C)C[C@@H](N)C(=O)O")
"97%"
>>> reported_value("N[C@H](Cc1ccccc1)C(=O)O")
"170%"
>>> reported_value("O=C(O)[C@H]1CCCN1")
"374%"
>>> reported_value("C[C@@H](N)C(=O)O")
"136%"
>>> reported_value("CC[C@@H](C)[C@@H](N)C(=O)O")
"178%"
>>> reported_value("N[C@H](Cc1c[nH]c2ccccc12)C(=O)O")
"14%"
>>> reported_value("CSCC[C@@H](N)C(=O)O")
"322%"
>>> reported_value("NC(N)=NCCCC(N)C(=O)O (centres unmarked)")
"8%"

Kindly review the next compound as well.
Exercise: For CC(C)[C@@H](N)C(=O)O , what is its reported percent reactivity of D-amino acid (relative to D-valine defined as 100)?
Key: 100%
